- System: OVCAR-4 ovarian
- test_description: NCI tumour cell line growth inhibition, 48 h
property: TGI

// known answers, use as guide
• Nc1cccc(Nc2nc3ccccc3nc2NS(=O)(=O)c2ccccc2)c1 = 46.5 µM
• OCC1OC(n2cnc3c(Cl)nc(Nc4ccccc4)nc32)CC1O (stereo unspecified) = > 100 µM
• O=C1c2ccc3c4ccccc4n(Cc4ccccc4)c3c2C(=O)N1c1ccccc1 = 23.1 µM
• Cc1ccc(S(=O)(=O)OCC(=O)O)cc1 = > 100 µM
• CCOC(=O)/C=C(\C(=O)OCC)n1cc(C)c(=O)n(Cc2cnnn2CCCCOC(C)=O)c1=O = 58 µM
• O=C(NCCCCCCNCc1cccc2ccccc12)Nc1cccc2ccccc12 = > 100 µM
• Cc1cn(C2CC(n3cc(Cn4cc(Br)c(=O)[nH]c4=O)nn3)C(CO)O2)c(=O)[nH]c1=O (stereo unspecified) = > 100 µM
• NC(CS/C(Cl)=C/Cl)C(=O)O (stereo unspecified) = > 100 µM
• C=C1C(=O)CC2C(=O)C(C)(O)CC/C=C(\C)C(=O)CC12 (stereo unspecified) = > 58.2 µM
• NC(N)=NCCCCCNc1noc(Cc2c[nH]c3cc(Br)ccc23)n1 = 91.8 µM

// next item, TGI requested
Item: `CCc1ccccc1NC(=O)c1sc2nc3c(cc2c1N)C(=O)CCC3` Test system: OVCAR-4 ovarian Read-out: TGI Value: ?
> 100 µM

====

- Test system: TK-10 renal
- test_description: NCI tumour cell line growth inhibition, 48 h; in the data active = GI50 below about 0.43 µM; inactive = the rest
Would you mind answering with one of these outcomes? TRUE for active, FALSE for inactive

These solved cases illustrate the format of a correct answer.
* O=[N+]([O-])c1ccc2c(c1)C(c1ccccc1Cl)=Nc1cn[nH]c1N2 | FALSE
* Cn1cc(C2=C(c3cn(CCCCCN)c4ccccc34)C(=O)NC2=O)c2ccccc21 | FALSE

State the result this test recorded for `C[C@]12CC[C@@H]3c4ccc(O)cc4CC[C@H]3[C@@H]1CC[C@@H]2NS(=O)(=O)c1cccc(F)c1` .
FALSE

What do you have for `C[C@]12CCc3nc(Nc4ccccc4)sc3C1=CC[C@@H]1[C@@H]2CC[C@]2(C)/C(=N/NC(N)=S)CC[C@@H]12` ?
FALSE

What do you have for `Cc1cc2c(cc1Cl)SC(=Nc1ccc(Cl)cc1)N(S(=O)(=O)c1ccccc1)S2(=O)=O` ?
FALSE

What do you have for `N#C/C(=C/N1CCN(C(=O)c2ccco2)C1=S)C(=O)c1ccccc1` ?
FALSE

What do you have for `Nc1nc(SN=Nc2ccc(S(N)(=O)=O)cc2)c2[nH]cnc2n1` ?
FALSE

What do you have for `CC(=O)O[C@H](C[C@H](C(C)C)N(C)C(=O)[C@@H](NC(=O)[C@H]1CCCCN1C)C(C)C)c1nc(C(=O)N[C@@H](Cc2ccccc2)C[C@H](C)C(=O)O)c(CCOCc2ccccc2)s1` ?
TRUE

What do you have for `Cc1cc(N/N=C/c2nc(-c3ccc(Br)cc3)oc2C)c2cc(Br)ccc2n1` ?
FALSE

What do you have for `N.N.N.N.[Cl-].[Co+3].[N-]=[N+]=[N-].[N-]=[N+]=[N-]` ?
FALSE

====

- Tested on: T-47D breast
- test_description: NCI tumour cell line growth inhibition, 48 h
Where a SMILES comes first, the peptide text is derived from it. The star is where a group is joined. X36 = O=C(c1ccc(-c2ccc(Cl)cc2Cl)o1)*
Entries and their TGI

- N#Cc1nc(-c2cccs2)oc1N: > 100 µM
- Cc1cc(C)cc(Nc2cc(=O)[nH]c(=O)[nH]2)c1: > 100 µM
- Nc1c(Cl)ncnc1N[C@@H]1C[C@H]1CO: > 100 µM
- Cc1cc[c-]cc1.Fc1c[c-]c(-c2ccccn2)c(F)c1.[Pt+2].c1ccc(P(C[PH+](c2ccccc2)c2ccccc2)c2ccccc2)cc1: 9.47 µM
- N#Cc1c(-c2ccccc2)nc(-c2ccccc2)sc1=S: > 100 µM

Reported TGI, compound C1CCC2C(C1)CCCC2NC1=NCCO1 (centres undefined) : ____
> 100 µM

What do you have for CCC(C)C(NC(=O)CNC(=O)C(Cc1ccccc1)NC(=O)C1CCCN1C(=O)c1ccc(-c2ccc(Cl)cc2Cl)o1)C(=O)OC (centres undefined) (X36-PFGI-OMe; configuration not given here) ?
> 100 µM

What do you have for `Cc1ccc2c(=O)cc(-c3cccs3)[nH]c2n1` ?
> 67.7 µM

What do you have for `CCOC(=O)/C1=C(\C)N(c2ccc(C)cc2)C(=O)c2ccccc2C(=O)c2c(OC(C)=O)ccc(OC(C)=O)c21` ?
76.5 µM
